Tested on: HOP-92
Assay: NCI tumour cell line growth inhibition, 48 h
Calls of active or inactive are those of the source. No stated cut-off is given here; in the data, active = GI50 up to about 1.1 µM and inactive = higher.
Select the matching outcome among YES (active), NO (inactive)

Task: Recorded call for CN(C)CC1(C)CC/C(=C\c2ccccc2)C1=O (stereo unspecified) ?
Output: NO

Task: Recorded call for CC1CC(C)(O)C2C3(C)CCCC2(COC3=O)C12CCC1(CCOC1=O)O2 (stereo unspecified) ?
Output: NO

Task: Recorded call for CCOC(=O)C(NC(C)=O)(Nc1ccc(S(N)(=O)=O)cc1)C(F)(F)F (stereo unspecified) ?
Output: NO

Task: Recorded call for CCCCCCCCCCCCCCCCOCC(Cl)COP(=O)(O)OP(=O)(O)OCC1OC(n2cnc3c(N)ncnc32)C(O)C1O (stereo unspecified) ?
Output: NO

Task: Recorded call for O=C(CCc1cccc(O)c1)NCCCNC(=O)CCc1cccc(O)c1 ?
Output: NO

Task: Recorded call for CCCCCCCCCCCCCCCCCc1nc(Cl)nc(Cl)c1Cl ?
Output: NO

Task: Recorded call for Cc1ccc2c(c1)C(=O)C1(C2)Cc2ccc(C)cc2C1=O ?
Output: NO

Task: Recorded call for CC(=O)Oc1cc(/C=C/c2ccc(O)cc2)cc(OC(C)=O)c1 ?
Output: NO

Task: Recorded call for N=C(N)NS(=O)(=O)c1ccc(NCc2c3ccccc3nc3ccccc23)cc1 ?
Output: YES

Task: Recorded call for CN1C2CCC1/C(=C/c1cccc3c1OCO3)C(=O)/C2=C\c1cccc2c1OCO2 ?
Output: NO

Task: Recorded call for O=C1C(N2CCNCC2)=C(Cl)C(=O)c2ncccc21 ?
Output: NO

* * *

System: DU-145
Experiment: NCI tumour cell line growth inhibition, 48 h
Activity calls are given as the source filed them. Cut-off read from the data, not from the text of the source: active = GI50 up to about 1.1 µM and inactive = higher.
Select the matching outcome among YES for active, NO for inactive

Task: Recorded call for O=c1cc(-c2ccccc2F)[nH]c2ccc(N3CCCC3)cc12 ?
Output: YES

Task: Recorded call for C=CCCC1(O)C(O)C(CO)O[C@H](O[C@@]2(CO)OC(CO)C(O)C2O)C1O (stereo not given in full) ?
Output: NO

Task: Recorded call for CC(=O)Oc1cc(/C=C/c2ccc(O)cc2)cc(OC(C)=O)c1 ?
Output: NO

Task: Recorded call for CCOc1ccc(N/C(=C(/C(Cl)=C(/Cl)Nc2ccccc2)[N+](=O)[O-])n2nnc3ccccc32)cc1 ?
Output: NO

Task: Recorded call for Nc1c2c(nc3cc(F)c(F)cc13)CCC2 ?
Output: NO

* * *

System: MCF7
Test: NCI tumour cell line growth inhibition, 48 h
Structures can show the parent of a compound that is named as a salt. Active and inactive are the calls of the source. Rule as the data show it: active = GI50 up to about 1.1 µM and inactive = higher.
Select the matching outcome among active, inactive

Task: Recorded call for COc1cc(C(=O)C2CC3(CCC2(O)c2cc(OC)c(OC)c(OC)c2)CC(=O)Nc2ccccc2C3=O)cc(OC)c1OC (centres undefined) ?
Output: inactive

Task: Recorded call for CC1(C)NC(C)(C)/C(=N\O)C(=NO)/C1=N/O ?
Output: inactive

Task: Recorded call for CCOC(=O)C(NC(C)=O)(Nc1ccc(S(N)(=O)=O)cc1)C(F)(F)F (centres undefined) ?
Output: inactive

Task: Recorded call for CC(=O)N1N=C(c2cc(C)ccc2O)CC1c1cccc(Cl)c1 (centres undefined) ?
Output: inactive

Task: Recorded call for Nc1nc(Cl)cc(NCC2(CCO)CCC2)n1 ?
Output: inactive

Task: Recorded call for C/C(=C\CO)CC/C=C(\C)CNc1ccc([N+](=O)[O-])cc1 ?
Output: inactive

Task: Recorded call for COc1cc(OC)cc(Oc2nc3ccc(C(F)(F)F)cc3nc2-c2ccccc2)c1 ?
Output: inactive

Task: Recorded call for CCCCOC(=O)CC(CC(=O)OCCCC)(OC(C)=O)C(=O)OCCCC [ACETYLTRIBUTYL CITRATE] ?
Output: inactive

Task: Recorded call for COc1ccc2nc3c([N+](=O)[O-])ccc(NCCN(C)C)c3c(N)c2c1 ?
Output: active

Task: Recorded call for CCOP(C)(=O)C(Cc1c[nH]c2ccccc12)C(=O)O (centres undefined) ?
Output: inactive

Task: Recorded call for CC1OCC2OC(C)OC(C3C4=C(CC(C)(C)CC4=O)OC4=C3C(=O)CC(C)(C)C4)C2O1 (centres undefined) ?
Output: inactive

Task: Recorded call for CCOC(CN(C)C(=O)Nc1ccc(Cl)c(Cl)c1)OCC ?
Output: inactive

Task: Recorded call for N#Cc1c(-c2ccc([N+](=O)[O-])cc2)c(C#N)c(=O)n(NS(=O)(=O)c2ccccc2)c1O ?
Output: inactive

Task: Recorded call for C=CC1=C(C)c2cc3[nH]c(c4c5nc(cc6[nH]c(cc1n2)c(C)c6CC)C=C5C(=O)C4C(=O)OC)C(CCC(=O)OC/C=C(\C)CCCC(C)CCCC(C)CCCC(C)C)C3C.C=CC1=C(C)c2cc3[nH]c(c4c5nc(cc6[nH]c(cc1n2)c(C=O)c6CC)C=C5C(=O)C4C(=O)OC)C(CCC(=O)OC/C=C(\C)CCCC(C)CCCC(C)CCCC(C)C)C3C (centres undefined) ?
Output: inactive

Task: Recorded call for COc1ccc2c(=O)oc3c(OC)cc(CCN(C)C)c4c(=O)oc1c2c34 [TASPINE] ?
Output: inactive

Task: Recorded call for CC(NO)/C(=N/O)c1ccco1 (centres undefined) ?
Output: inactive

Task: Recorded call for COc1ccc(/C=C/c2cc(O)cc(OC3OC(CO)C(O)C(O)C3O)c2)cc1O (centres undefined) ?
Output: inactive

Task: Recorded call for O=c1c2ccccc2ncn1COCc1ccccc1 ?
Output: inactive

Task: Recorded call for CCC1(O)CC(O)c2c(O)c3c(c(O)c2C1C(=O)OC)C(=O)c1cccc(O)c1C3=O (centres undefined) ?
Output: inactive

* * *

Provide the recorded GI50 for the entries that follow.
Tested on: 786-0
Assay: NCI tumour cell line growth inhibition, 48 h
Active and inactive are the calls of the source. Cut-off read from the data, not from the text of the source: active = GI50 up to about 1.1 µM and inactive = higher.

Task: Tell me measured GI50 for CC1=C(C(=O)O)N2C(=O)[C@@H](NC(=O)C(c3ccc(O)cc3)N3CSC(=S)N(C(C)C)C3)C2SC1 (stereo not given in full) please.
Output: > 100 µM (inactive)

Task: Tell me measured GI50 for Cc1nc2ccccc2n1CCc1nc2ccccc2[nH]1 please.
Output: > 100 µM (inactive)

Task: Tell me measured GI50 for COC(=O)CCC(NC(=S)N/N=C(\C)c1nccs1)C(=O)OC (stereo not given) please.
Output: 69.3 µM (inactive)

Task: Tell me measured GI50 for CC(C)(C)OC(=O)CC(NC(=O)OC(C)(C)C)C(=O)NC(C(=O)O)C(O)c1ccccc1 (stereo not given) please.
Output: > 100 µM (inactive)

Task: Tell me measured GI50 for N#CC(C#N)=Cc1ccc(Oc2ccccc2)cc1 please.
Output: 18.2 µM (inactive)

Task: Tell me measured GI50 for COc1cccc2c1C(=O)c1c(O)c3c(c(O)c1C2=O)CC(O)(C(C)=O)CC3OC1CC([N+](C)(C)C)C(O)C(C)O1 (stereo not given) please.
Output: > 100 µM (inactive)

Task: Tell me measured GI50 for COc1ccc(C2=C(N)c3c(Cl)cccc3C2=O)cc1 please.
Output: > 100 µM (inactive)

Task: Tell me measured GI50 for O=C1C(CN2CCCCC2)CCCC1CN1CCCCC1 (stereo not given) please.
Output: 7.29 µM (inactive)

Task: Tell me measured GI50 for c1ccc(SC(Sc2ccccc2)c2ccc3c(c2)OCO3)cc1 please.
Output: > 100 µM (inactive)

Task: Tell me measured GI50 for CCOP(=O)(OCC)C(Nc1ccc(C(=O)O)cc1)c1ccc(C(Nc2ccc(C(=O)O)cc2)P(=O)(OCC)OCC)cc1 (stereo not given) please.
Output: > 100 µM (inactive)

* * *

Tested on: NCI-H460
Test: NCI tumour cell line growth inhibition, 48 h
Calls of active or inactive are those of the source. No stated cut-off is given here; in the data, active = GI50 up to about 1.1 µM and inactive = higher.
Provide the recorded GI50 for the entries that follow.

Task: Tell me measured GI50 for NCC(=O)N[C@H]1c2ccsc2/C(=N/O)[C@H]1O please.
Output: > 100 µM (inactive)

Task: Tell me measured GI50 for CN(C)CC1(C)CC/C(=C\c2ccccc2)C1=O (stereo unspecified) please.
Output: > 100 µM (inactive)

Task: Tell me measured GI50 for CC(C)CCCC(C)[C@H]1CCC(C2C[C@@H](O)[C@@H]3CC(O)[C@@H](O)C[C@]3(CO)C2=O)[C@]1(C)CCO (stereo partly specified) please.
Output: 21.8 µM (inactive)

Task: Tell me measured GI50 for CCOC(=O)c1csc(NC(=O)C(C)N2CCCCC2)n1 (stereo unspecified) please.
Output: > 100 µM (inactive)

Task: Tell me measured GI50 for O=C1C(Cl)C(c2ccccc2Cl)N1n1cnc2ccccc2c1=O (stereo unspecified) please.
Output: > 100 µM (inactive)

Task: Tell me measured GI50 for Clc1ccc(/C=N/C23CC4CC(CC(C4)C2)C3)c(Cl)c1 please.
Output: > 10 µM (inactive)

Task: Tell me measured GI50 for OCC1OC(n2cnc3c2NC=NC[C@H]3O)C(O)C1O (stereo partly specified) please.
Output: 164 µM (inactive)

Task: Tell me measured GI50 for Oc1cc(-c2ccccn2)nc2cc(F)ccc12 please.
Output: 38.7 µM (inactive)

Task: Tell me measured GI50 for CCOC(=O)C(C/C=C/CO)N(C)C(=O)OC(C)(C)C (stereo unspecified) please.
Output: > 100 µM (inactive)

Task: Tell me measured GI50 for COc1ccc(C2=C(N)c3c(Cl)cccc3C2=O)cc1 please.
Output: > 100 µM (inactive)

Task: Tell me measured GI50 for O=C(NCCCl)O/N=C/c1cccnc1 please.
Output: > 100 µM (inactive)
